Measured pKd, listed per entry.
Target: GST-ZZS01 fusion protein (UniProt P08515 1-218 = GST)
Sequence (P08515 1-218, tags or fused parts left off): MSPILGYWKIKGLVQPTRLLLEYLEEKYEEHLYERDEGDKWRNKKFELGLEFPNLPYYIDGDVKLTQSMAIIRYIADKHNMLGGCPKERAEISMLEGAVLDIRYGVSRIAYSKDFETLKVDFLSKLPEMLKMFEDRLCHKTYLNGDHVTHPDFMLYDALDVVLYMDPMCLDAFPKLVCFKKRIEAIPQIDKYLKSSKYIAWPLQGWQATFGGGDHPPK
Assay: Biacore SPR as in Example 3.3
Quick note: pKd means taking -log10 of the concentration in moles per liter.

Worked cases, answers included:
Binder	Parameter Measured	Quantitative Result
h22 (antibody, V domains shown) VH: QVQLVESGGGLVKPGGSLRLSCAASGFTFSAHYMSWIRQAPGKGLEWVSYISPSSSYTVYADSVKGRFTISRDNAKNSLFLQMNSLRAEDTAVYYCAREGSPGGQGTLVTVSS VL: DVVMTQSPLSLPVTLGQPASISCRSSQNLVDSDGNTYLSWFQQRPGQSPRRLIYKVSDRDSGVPDRFSGSGSGTDFTLKINRVEAEDIGIYYCMQGSHWPFTFGPGTKVDIKR	pKd	9.98
h25 (antibody, V domains shown) VH: EVQLVESGGGLVKRGGSLRLSCAASGFTFSSYSMHWVRQAPGKGLEWVSSISSRSTYIYYADSVKGRFTISRDNAKNSLYLQMNSLSAEDTAVYYCARGSGSYYVFDYWGQGTLVTVSS VL: ELVMTQSPATLSVSPGERATLSCRASQSVSSNLAWYQQKPGQAPRLLIYGASSRATNIPARFSGSGSGTEFTLTISSLQSEDFAVYYCQQYDNWPMYSFGQGTKLEIKR	pKd	9.49

[in] GET /values?readout=pKd&item= h16 (antibody, V domains shown) VH: QVQLVESGGGLVKPGGSLRLSCEASGFTFSAHYMSWIRQAPGKGLEYVSYISSSSSYTNYADSVKGRFTISRDNAKNSLYLQMNSLRAEDTAVYYCAREGSPGGQGTLVTVSS VL: DVVLTQSPLSLPVTLGQPASISCRSSQSLVDSDGNTYLSWFHQRPGQSPRRLIYKVSDRDSGVPDRFSGSGSGTDFTLKISRVEAEDVGVYYCMEGTHWPFTFGPGTKVDIKR
[out] 8.66

[in] If you can, please state the reported pKd value of h10 (antibody, V domains shown) VH: QVQLVESGGGLVKPGGSLRLSCEASGFTFSAHYMSWIRQAPGKGLEYVSYISSSSSYTNYVDSVKGRFTISRDNAKNSLYLQMNSLRVEDTAVYYCAREGSPGGQGTLVTVSS VL: DVVLTQSPLSLPVTLGQPASISCRSSQSLVDSDGNTYLSWFHQRPGQSPRRLIYKVSDRDSGVPDRFSGSGSGTDFTLKISRVEAEDVGVYYCMEGTHWPFTFGPGTKVDIKR .
[out] 10.07

[in] Form field: reported pKd of h27 (antibody, V domains shown) VH: EVQLVESGGGLVKPGGSLRLSCAASGFTFSSYSMSWVRQAPGKGLEWVSSISSRSNYIYYADSVKGRITISRDNAKNSLYLQMNSLRAEDTAVYYCARGSGSYYVFDYWGQGTLVTVSS VL: ELVMTQSPATLSMSPGDRATLSCRASQSIRSDLAWYQQKPGQAPRLLIYDASTRATGIPARFSGSGSGTEFTLSISSLQSEDFAVYYCQQYNNWPMYTFGQGTKLEIKR
[out] 9.80
